Tested on: BA/F3 (insSVD) cells
Test: Ba/F3-EGFR-insSVD cell survival assay (Cell Titer-Glo)
Format: cell-based
Conditions: Mus musculus, BaF3, 48 h, Table 3a, cell survival, Cell Titer-Glo, with 10 ng/ml EGF, without IL-3
pIC50: −log10 of the molar value.
Label rule, in plain words: pIC50 of 7 and up is Yes, under 7 is No.

// query Assess whether reported pIC50 for "CN(C)C/C=C/C(=O)N1CCn2nc(-c3ccc(Cl)cc3CO)c(-c3ccncc3)c2C1" sits at 7 or higher.
// result No

// query Does "C=CC(=O)N1CCn2nc(-c3ccc(F)cc3)c(-c3ccnc(OC)c3)c2C1" have a reported pIC50 of at least 7?
// result No

// query Has "C=CC(=O)N1CCn2nc(-c3cccc(F)c3)c(-c3ccncc3)c2C1" a recorded pIC50 greater than or equal to 7?
// result Yes

// query pIC50 >= 7 for "C=CC(=O)N1CCn2nc(-c3ccc4cc[nH]c4c3)c(-c3ccncc3)c2C1" ?
// result Yes

// query Does "C=CC(=O)N1CCn2nc(-c3ccc(CC)cc3)c(-c3ccncc3)c2C1" have a reported pIC50 of at least 7?
// result Yes

// query Kindly determine if pIC50 recorded for "C=CC(=O)N1Cc2c(-c3ccncc3)c(-c3cccc(C#N)c3)nn2C[C@@H]1C" is above or exactly 7.
// result Yes

// query Decide: pIC50 of "C=CC(=O)N1CCn2nc(-c3ccc4ccccc4c3F)c(-c3ccncc3)c2C1" >= 7?
// result Yes
